This collection of values is drawn from PubChem BioAssay (NCI).

# Tested on: PC-3 prostate
# method description: NCI-60 one-dose screen, 48 h
# reported conditions: 10 µM unless noted
About 83,000 compounds went through this panel and 20% of them were active in at least one assay; those are over-represented in the sample as a whole. Active and inactive are the calls of the source. How the source made its calls: active means growth percent below 10; inactive means the rest.
I would appreciate it if you answered using one of these outcomes: active, inactive

Previously resolved entries follow.
>  <molecule>
C=CN(C(=O)N1CCN(c2cc3c(cc2F)c(=O)c(C(=O)O)cn3C2CC2)CC1)c1nc(-c2ccc(Cl)cc2)cs1

>  <group>
inactive

$$$$
>  <molecule>
O=C(O)c1cn(C2CC2)c2cc(N3CCN(C(=O)N4CCOCC4)CC3)c(F)cc2c1=O

>  <group>
inactive

$$$$
>  <molecule>
CCCCCCCCCCCCCCCCCCOc1ccccc1CC(=O)NCC[N+](C)(C)C

>  <group>
active

$$$$
>  <molecule>
CS(=O)(=O)Nc1cc(-c2ccc3ncnc(Nc4ccc(F)c(Cl)c4)c3c2)ccc1Cl

>  <group>
inactive

$$$$
>  <molecule>
O=C(C[C@]1(O)C(=O)Nc2ccc(Br)cc21)c1ccco1

>  <group>
inactive

$$$$
>  <molecule>
Clc1ccc(-c2nc(C(Cl)Cl)nc3cc(-c4ccccc4)nn23)cc1

>  <group>
inactive

$$$$
>  <molecule>
O=c1c2ccccc2n(C[C@H]2CO2)c2ccccc12

>  <group>
inactive

$$$$
>  <molecule>
COc1nc(/C=C\Nc2ccc3c(c2)OCCOCCOCCOCCO3)nc(OC)n1

>  <group>
inactive

$$$$
>  <molecule>
CC(C)C1C2=C(NCCN1C(=O)c1ccncc1)C(C)(C)N(Cc1ccccc1)C2=O (stereo unspecified)

>  <group>
inactive

$$$$
>  <molecule>
Nc1cc(Br)cc2c1[nH]c(=O)c1ccccc12

>  <group>
inactive

$$$$

Attention now turns to another entry.
For this molecule, state the assay outcome: `COc1cc(OC)c2c(=O)c3c(CC=C(C)C)cc(OC)c(O)c3oc2c1`
inactive

* * *

# Tested on: RXF 393 renal
# method description: NCI-60 one-dose screen, 48 h
# reported conditions: 10 µM unless noted
The panel holds about 83,000 compounds, 20% with a hit somewhere; the sample as a whole holds those more often. Active and inactive are the calls of the source. Rule for the calls: active = growth percent below 10; inactive = the rest.
Choose one outcome from this list and give only that: 1.0 = active, 0.0 = inactive

>  <compound>
O=C(O)c1cn(C2CC2)c2cc(N3CCN(C(=O)N4CCOCC4)CC3)c(F)cc2c1=O

>  <group>
0.0

$$$$
>  <compound>
O=C(NC1CCC(Br)CC1)C1CCCC(S(=O)(=O)NC2CCCCC2)C1 (stereo not given)

>  <group>
0.0

$$$$
>  <compound>
C[C@H](c1nc2ccc(C#N)cc2[nH]1)[C@H]1CC[C@H]2[C@@H]3CCC4=CC(=O)CC[C@]4(C)[C@H]3CC[C@]12C

>  <group>
0.0

$$$$
>  <compound>
C=C1C(=O)O[C@@H]2C3C(=C(C)CC[C@@H]12)CC1O[C@]13C (stereo not given in full)

>  <group>
0.0

$$$$
>  <compound>
CC(C)NS(=O)(=O)/N=C1\NC(=O)NC1=C(Cl)Cl

>  <group>
0.0

$$$$

Just curious, what result did CC(O)Cc1c[nH]c(=O)[nH]c1=O (stereo not given) get here?
0.0

Which outcome did this test record for the compound `CC(=O)c1c(Nc2cccc(F)c2)[nH]c2c(Cl)cc(Cl)c(Cl)c2c1=O` ?
1.0

GET /call?item= CCOC(=O)C(CCN(C)C)c1ccccc1 (stereo not given) returns the recorded outcome of this test.
0.0

Fill in: this test's call for O=C1CCCC1[n+]1ccccc1 (stereo not given) is ___
0.0

Look up the recorded call for `CC(=O)c1ccc(-n2cc(CN3CCN(c4cc5c(cc4F)c(=O)c(C(=O)O)cn5C4CC4)CC3)nn2)cc1` in this test.
0.0

* * *

Recorded growth values for a group of compounds are listed next.
# Test system: RPMI-8226 leukemia
# method description: NCI-60 one-dose screen, 48 h (100 = growth as untreated, 0 = no growth, -100 = all killed)
# reported conditions: 10 µM unless noted
This is part of a sample that, as a whole, favours compounds with a hit. Of some 83,000 tested, about 20% had one in any assay.
Note: unit % is implicit; provide only the numeric part.

Study these solved cases before continuing.
>  <smiles string>
Nc1ncccc1O

>  <system name>
RPMI-8226 leukemia

>  <value kind>
growth

>  <numeric readout>
87

$$$$
>  <smiles string>
NS(=O)(=O)c1ccc(C(=O)NN2C(=O)c3ccccc3C2=O)cc1

>  <system name>
RPMI-8226 leukemia

>  <value kind>
growth

>  <numeric readout>
109

$$$$
>  <smiles string>
Nc1c(Br)cc2c(c1Br)Cc1cc([N+](=O)[O-])ccc1-2

>  <system name>
RPMI-8226 leukemia

>  <value kind>
growth

>  <numeric readout>
91.3

$$$$
>  <smiles string>
Clc1ccc(Nc2ncc(Cc3cccc(Cl)c3Cl)s2)cc1

>  <system name>
RPMI-8226 leukemia

>  <value kind>
growth

>  <numeric readout>
89.4

$$$$
>  <smiles string>
Nc1nc2ccccc2c2c(=O)c3cc(Cl)ccc3sc12

>  <system name>
RPMI-8226 leukemia

>  <value kind>
growth

>  <numeric readout>
102

$$$$

Read the next record carefully.
Quick one: growth of `COc1ccc(C/C(C)=C(\c2ccc(Cl)cc2)c2ccc(OCCCN(C)C)cc2)cc1` ?
-2.97

* * *

# System: HT29 colon
# method description: NCI-60 one-dose screen, 48 h
# reported conditions: 10 µM unless noted
The panel holds about 83,000 compounds, 20% with a hit somewhere; the sample as a whole holds those more often. Activity calls are given as the source filed them. How the source made its calls: active means growth percent below 10; inactive means the rest.
Hi! Could you answer with just one of these? active, inactive

>  <compound>
CCn1cc(C(=O)N/N=C/c2ccccc2)c(=O)c2cc(F)c(N3CCNC(C)C3)c(F)c21 (stereo not given)

>  <group>
active

$$$$
>  <compound>
Cc1[nH]c(C(=O)Nc2ccccc2OC2CCN(CCN3CCOCC3)CC2)c(Cl)c1Cl

>  <group>
inactive

$$$$
>  <compound>
Oc1c(I)cc(I)cc1CN(Cc1ccccn1)Cc1ccccn1

>  <group>
inactive

$$$$
>  <compound>
Nc1[nH]nc2nc(-c3ccccc3)n3c4ccccc4nc3c12

>  <group>
inactive

$$$$
>  <compound>
Cc1cc(C)c2c(c1)N(C)c1ncnc(-n3c(C)nc4cc(C)ccc43)c1CC2C (stereo not given)

>  <group>
inactive

$$$$
>  <compound>
O=C(NCc1ccc(Cn2c(=O)sn(-c3ccccc3)c2=O)cc1)OCc1ccc2cccc(O)c2n1

>  <group>
active

$$$$
>  <compound>
O=C(Cn1nc(-c2cccc3ccccc23)ccc1=O)NCc1cccc(Cl)c1

>  <group>
inactive

$$$$
>  <compound>
CN(C)CCC(CCN(C)C)(C(=O)O)c1ccccc1

>  <group>
inactive

$$$$

I'd appreciate the recorded outcome for CCN(CC)C(=O)C1=C(C)NC(=O)NC1c1ccc2c(c1)OCO2 (stereo not given) from this test.
inactive

Given `COC(=O)Cn1c2c(c3c(OC)cccc31)C(=O)c1ccccc1-2` , state the outcome it received in this test.
inactive

* * *

# Tested on: CAKI-1 renal
# method description: NCI-60 one-dose screen, 48 h
# reported conditions: 10 µM unless noted
About 83,000 compounds went through this panel and 20% of them were active in at least one assay; those are over-represented in the sample as a whole. The source made the active and inactive calls. The calls were made as follows: active = growth percent below 10; inactive = the rest.
Answer with one of the outcomes given here: active, inactive

Solved entries:
>  <molecule>
CN(C)c1ccc(/C=C2\C=C(c3nc4ccccc4s3)OC2=O)cc1

>  <group>
inactive

$$$$
>  <molecule>
O=C(c1ccc(Br)cc1)C(Br)C(c1ccc(Cl)cc1)C(c1ccccc1)[N+](=O)[O-] (centres undefined)

>  <group>
inactive

$$$$

Tell me the assay call for `CS(=O)(=O)Nc1cc(-c2ccc3ncnc(Nc4ccc(F)c(Cl)c4)c3c2)ccc1Cl` please.
inactive

GET /call?item= COC1C(O)CC(OC2CC(OC3CC(O[C@@H]4C(=O)c5c(cc6cc(OC7CC(OC8CC(O)C(O)C(C)O8)C(O)C(C)O7)c(C)c(O)c6c5O)CC4[C@H](OC)[C@@H](O)C(C)=O)OC(C)C3O)OC(C)C2O)OC1C (some centres undefined) returns the recorded outcome of this test.
inactive

Hey, what did the test say about C#Cc1cccc(NC(=O)C2CCCCN2C(=O)CCl)c1 (centres undefined) ?
active

Answer briefly: the call reported for `CCOC(=O)c1ccc[nH]1` in this assay.
inactive

Assay result, entry `COc1ccc(C/C(C)=C(\c2ccc(Cl)cc2)c2ccc(OCCN3CCCC3)cc2)cc1` — outcome?
inactive

Assay result, entry `COc1ccc(-c2cc(-c3cc(OC)ccc3OC)nc(SCC(C)=O)c2C#N)cc1` — outcome?
inactive

Given `COc1c2c(cc3c1C(=O)N[C@@H]1[C@@H](O)[C@@H](O)[C@H](O)C[C@@H]31)OCCO2` , state the outcome it received in this test.
inactive

Hi, do you know how C=CC(CC(c1ccccc1)(c1ccccc1)c1ccccc1)N(CC)CC (centres undefined) came out in this test?
inactive

Hey, what did the test say about `c1ccc2cc(Cn3cc(CSc4nc5ccccc5s4)nn3)ccc2c1` ?
inactive

Query: recorded result category for `c1ccc(-c2nc3ccccc3[nH]2)c(OCCCCCOc2ccccc2-c2nc3ccccc3[nH]2)c1` in this test
inactive

Test call, this molecule: `N#Cc1c(-c2ccc(Br)cc2)nc2c(N=Nc3ccc(S(N)(=O)=O)cc3)c(N)nn2c1N`
inactive

Per the records of this test, what outcome belongs to `COc1ccc2c(c1)oc1c(C)c3c(c(C)c12)C(=O)N(CCOS(C)(=O)=O)C3=O` ?
inactive

State the result this test recorded for `CC1=Nc2cnc(Nc3ccc(N4CCCCC4)cc3)nc2Nc2ccccc21` .
inactive

Given `Cc1c2ccccc2nc2cc3c(cc12)[C@H]1CC[C@]2(C)C(=O)CC[C@H]2[C@@H]1CC3` , state the outcome it received in this test.
inactive

Tell me the assay call for O=C1CCCC1[n+]1ccccc1 (centres undefined) please.
inactive

How did this test come out for `N#C/C(=C\c1ccc(-c2cccc(Cl)c2)o1)C(=O)Nc1ncc(Cc2ccc(Cl)cc2)s1` ?
inactive

Tell me the recorded outcome of this test for `CNCC[C@H](Oc1cccc2ccccc12)c1cccs1` .
inactive

Hi team, can someone confirm the assay call for `Cc1cc(NCCCNc2ccnc3cc(Cl)ccc23)nc(Nc2ccc(C(=O)N3CCCCC3)cc2)n1` ?
inactive
